Attribution: patent US10919927B2

Assay: Caco-2 bidirectional permeability assay
Format: in vitro ADME
Conditions: human, Caco-2; 10 μM, 90 minutes
propertyMeasured: efflux ratio at 90 min, 10 μM
Form field (numeric): enter value without unit.

Requested field: efflux ratio at 90 min, 10 μM. Item: CC[C@H]1OC(=O)[C@H](C)[C@@H](O[C@H]2C[C@@H](N(C)C)[C@H](O)[C@@H](C)O2)[C@H](C)[C@@H](O)[C@](C)(O)C[C@@H](C)CN(C)[C@H](C)[C@@H](O)[C@]1(C)O
63.4

* * *

Assay: Caco-2 bidirectional permeability assay
Format: in vitro ADME
Details: human, Caco-2; 10 μM, 90 minutes, apical to basolateral
propertyMeasured: Papp A→B at 90 min, 10 μM

Requested field: Papp A→B at 90 min, 10 μM. Item: CC[C@H]1OC(=O)[C@H](C)[C@@H](O[C@H]2C[C@@](C)(OC)[C@@H](O)[C@H](C)O2)[C@H](C)[C@@H](O[C@@H]2O[C@H](C)C[C@H](N(C)C)[C@H]2O)[C@](C)(O)C[C@@H](C)CN(C)[C@H](C)[C@@H](O)[C@]1(C)O [Azithromycin, reference compound]
< 0.14 ×10⁻⁶ cm/s
